- system tested: mutant HIV reverse transcriptase, Y181C mutation (Human immunodeficiency virus type 1 group M subtype B, UniProt P04585, Y768C)
- Construct: made in house
- test: Analogous RT inhibition assay, Y181C mutant
- Assay type: biochemical
- measurement setup: Y181C mutant RT; tested up to 20 micromolar; read-out: IC50, Y181C mutant assay
For each entry below, report its IC50 value.

stdin: Could you share which IC50 value was measured for Cc1nc(-c2[nH]c3ccc(Cl)cc3c2S(=O)(=O)c2ccccc2)no1 [Example 12] ?
stdout: > 20 µM

stdin: And the next one, O=S(=O)(c1c(-c2ncc(-c3ccccc3)[nH]2)[nH]c2ccc(Br)cc12)N1CCCC1 [Example 23] ?
stdout: > 20 µM

stdin: And the next one, O=S(=O)(c1c(-c2nc(-c3ccc4c(c3)OCO4)c[nH]2)[nH]c2ccc(Br)cc12)N1CCCC1 [Example 30] ?
stdout: 1 to 20 µM

stdin: And the next one, O=S(=O)(c1c(-c2nc(-c3ccc(F)cc3)c[nH]2)[nH]c2ccc(Br)cc12)N1CCCC1 [Example 25] ?
stdout: > 20 µM

stdin: And the next one, Cc1cnc(-c2[nH]c3ccc(Cl)cc3c2S(=O)(=O)CC2CCC2)[nH]1 [Example 34] ?
stdout: < 1 µM

stdin: And the next one, CCc1nc(-c2[nH]c3ccc(Cl)cc3c2S(=O)(=O)c2ccccc2)no1 [Example 15] ?
stdout: > 20 µM

---

For each entry below, report its IC50 value.
- system tested: mutant HIV reverse transcriptase, Y181C mutation (Human immunodeficiency virus type 1 group M subtype B, UniProt P04585, Y768C)
- Construct: made in house
- test: Analogous RT inhibition assay, Y181C mutant
- Type: biochemical
- measurement setup: Y181C mutant RT; tested up to 20 micromolar; read-out: IC50, Y181C mutant assay

stdin: Could you share which IC50 value was measured for CCC(CC)S(=O)(=O)c1c(-c2ncc(C)[nH]2)[nH]c2ccc(Cl)cc12 ?
stdout: < 1 µM

stdin: And the next one, Cc1cnc(-c2[nH]c3ccc(Cl)cc3c2S(=O)(=O)C2CCCC2)[nH]1 ?
stdout: < 1 µM

stdin: And the next one, O=S(=O)(c1c(-c2nc(-c3ccc(O)cc3)c[nH]2)[nH]c2ccc(Br)cc12)N1CCCC1 ?
stdout: 1 to 20 µM

stdin: And the next one, O=S(=O)(c1ccccc1)c1c(-c2noc(-c3ccccc3F)n2)[nH]c2ccc(Cl)cc12 ?
stdout: > 20 µM

stdin: And the next one, O=S(=O)(c1ccccc1)c1c(-c2noc(C3CCC3)n2)[nH]c2ccc(Cl)cc12 ?
stdout: > 20 µM

stdin: And the next one, O=S(=O)(c1ccccc1)c1c(-c2noc(COc3ccccc3)n2)[nH]c2ccc(Cl)cc12 ?
stdout: > 20 µM

stdin: And the next one, O=S(=O)(c1ccccc1)c1c(-c2nc(-c3ccccn3)cs2)[nH]c2ccc(Cl)cc12 ?
stdout: > 20 µM

stdin: And the next one, O=S(=O)(c1ccccc1)c1c(-c2noc(Cc3ccccc3)n2)[nH]c2ccc(Cl)cc12 ?
stdout: > 20 µM

---

- system tested: UniProt:P04585
measurement label: IC50 (µM)
Quick reminder: number only, in µM, skip the unit.

stdin: Could you share which IC50 value was measured for O=S(=O)(c1ccccc1)c1c(-c2ncc(-c3ccncc3)s2)[nH]c2ccc(Cl)cc12 ?
stdout: 4
